Molecular target: T1, full-length human GIPR (GenBank NM_000164) with an N-terminal FLAG tag on HEK-293T cells (human), P48546
T1 chain: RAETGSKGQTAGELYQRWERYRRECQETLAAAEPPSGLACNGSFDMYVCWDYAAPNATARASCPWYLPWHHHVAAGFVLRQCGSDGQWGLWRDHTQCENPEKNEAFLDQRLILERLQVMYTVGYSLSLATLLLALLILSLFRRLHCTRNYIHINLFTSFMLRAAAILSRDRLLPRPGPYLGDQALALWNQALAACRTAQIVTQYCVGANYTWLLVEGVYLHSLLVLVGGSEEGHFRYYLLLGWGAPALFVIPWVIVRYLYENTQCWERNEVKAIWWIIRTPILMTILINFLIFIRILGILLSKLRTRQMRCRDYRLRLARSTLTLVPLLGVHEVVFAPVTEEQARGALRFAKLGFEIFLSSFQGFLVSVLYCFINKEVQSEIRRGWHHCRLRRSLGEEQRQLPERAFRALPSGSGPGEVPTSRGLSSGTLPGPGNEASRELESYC
Assay: cell-based or functional assay
Numbered stars: 1 amine (or outer) side, 2 acyl side, 3 side chain; on linkers, the order of the positions; unused ones are H or OH. Square brackets hold non-standard residues; d marks the D form. Primed or numbered codes have the meaning given here. Side chains are listed from the residue outwards. Ends that are not written are not given here. * marks the point of attachment. C18 diacid = O=C(O)CCCCCCCCCCCCCCCCC(=O)*; γGlu = O=C(O)[C@H](CCC(=O)[*:2])N[*:1]; Iva = CC[C@](C)(N)C(=O)O; PEG3′ = not defined here; Aib = CC(C)(N)C(=O)O
Each entry below carries its recorded GIP EC50(pM).

# binder, GIP EC50(pM)
measured = [
    ("Y[Aib]EGTFISDYSIALDR[Aib]HQ[Aib]NFVNW[Iva]LAQRPSSGAPPK([Gly-Gly-Gly-Gly-Gly-γGlu-C18 diacid])S (ends and bridges not checked) [Compound No. 460]", 0.44),
    ("Y[Aib]EGTFISDYSIALDR[Aib]HQ[Aib]NFVNW[Iva]LAQRPSK([PEG3′-PEG3′-C18 diacid])GAPPPSR (ends and bridges not checked) [Compound No 899]", 0.7),
]
